system.tested: T1, labeled peptide-MHC (HLA-A*02:01) tetramer (…-HLA-A*02:01 tetramer) (human)
T1 construct: Labeled tetramer used for flow cytometry staining; also called pMHC; pMHC tetramer
assay.details: tetramer staining of sorted T cell clones, flow cytometry
measurement.name: binding result

{"columns": ["binder", "measurement.name", "meas.value"],
 "data": [
  ["nwTCR-2285 (TCR, V domains shown, TCR on T cells) V domain 1: KNEVEQSPQNLTAQEGEFITINCSYSVGISALHWLQQHPGGGIVSLFMLSSGKKKHGRLIATINIQEKHSSLHITASHPRDSAVYICALNSDSNYQLIWGAGTKLIIKP V domain 2: EAQVTQNPRYLITVTGKKLTVTCSQNMNHEYMSWYRQDPGLGLRQIYYSMNVEVTDKGDVPEGYKVSRKEKRNFPLILESPSPNQTSLYFCATSPGTLYEQYFGPGTRLTVTE", "binding result", "binds"],
  ["nwTCR-1954 (TCR, V domains shown, TCR on T cells) V domain 1: QKEVEQNSGPLSVPEGAIASLNCTYSDRGSQSFFWYRQYSGKSPELIMSIYSNGDKEDGRFTAQLNKASQYVSLLIRDSQPSDSATYLCAVLRSNDYKLSFGAGTTVTVRA V domain 2: EAQVTQNPRYLITVTGKKLTVTCSQNMNHEYMSWYRQDPGLGLRQIYYSMNVEVTDKGDVPEGYKVSRKEKRNFPLILESPSPNQTSLYFCASSPGTSGNEQFFGPGTRLTVLE", "binding result", "binds"],
  ["nwTCR-3125 (TCR, V domains shown, TCR on T cells) V domain 1: QKEVEQNSGPLSVPEGAIASLNCTYSDRVSQSFFWYRQYSGKSPELIMSIYSNGDKEDGRFTAQLNKASQYVSLLIRDSQPSDSATYLCALVSGTYKYIFGTGTRLKVLA V domain 2: DTAVSQTPKYLVTQMGNDKSIKCEQNLGHDTMYWYKQDSKKFLKIMFSYNNKELIINETVPNRFSPKSPDKAHLNLHINSLELGDSAVYFCASSPGLAYEQYFGPGTRLTVTE", "binding result", "binds"]
]}
